# Test system: NIH3T3
# METHOD: Cytotoxic Profiling of Annotated Libraries Using Quantitative High-Throughput Screening (AID 1296008); note: nearly all actives have a fitted effect of over 60% in size
# CONDITION INFO: Five cell lines viability, CellTiter-Glo ATP luminescence, 48-72 h
Records with an inconclusive call do not appear. Active and inactive are the calls of the source. Calls come from the whole dose curve; as a rule, active = well fitted inhibition curve with a large enough effect; inconclusive = small, poorly fitted or top-dose-only effect; inactive = flat fitted curve, though single readings scatter.
Classes to choose from: 1 = active, 0 = inactive

Example cases with answers are listed next.
{"columns": ["MOLECULE", "TARGET OR SYSTEM", "CAT"],
 "data": [
  ["Cc1[nH]c2ccccc2c1C1=C(NCCc2ccc(F)cc2)C(=O)N(C)C1=O", "NIH3T3", 1],
  ["O=C(NOCC(O)CO)c1ccc(F)c(F)c1Nc1ccc(I)cc1F (centres undefined)", "NIH3T3", 1],
  ["CC(Oc1ccc2[nH]nc(/C=C/c3cnn(CCO)c3)c2c1)c1c(Cl)cncc1Cl (centres undefined)", "NIH3T3", 1],
  ["CC(=O)OC1C(O)CC2(C)C(CCC(C)C23Cc2c(O)cc(CO)c(C=O)c2O3)C1(C)C (centres undefined)", "NIH3T3", 0],
  ["COc1cc(N2CCC(N3CCN(C)CC3)CC2)ccc1Nc1ncc(Cl)c(-c2c[nH]c3ccccc23)n1", "NIH3T3", 1]
]}

Check the results log: what was the call for CC1CC(O)C2(OC1=O)OC1C(O)C3C4CCC5CC(OC6OC(CO)C(O)C(O)C6OC6OC(C)C(O)C(O)C6O)CCC5(C)C4CCC3(C)C1C2C (centres undefined) ? 0

---

# METHOD: P-glycoprotein substrates identified in KB-8-5-11 adenocarcinoma cell line, qHTS therapeutic library screen (AID 1346987); note: nearly all actives have a fitted effect of over 65% in size
# CONDITION INFO: KB-8-5-11 (P-gp overexpressing) viability, CellTiter-Glo, 72 h; series mostly up to 44.5 µM
Inconclusive results are not listed. Activity calls are given as the source filed them. Calls come from the whole dose curve; as a rule, active = well fitted inhibition curve with a large enough effect; inconclusive = small, poorly fitted or top-dose-only effect; inactive = flat fitted curve, though single readings scatter.
Classes to choose from: yes (1) (active), no (0) (inactive)

{"columns": ["COMPOUND", "CAT"],
 "data": [
  ["CC(=O)NC1=NN(C(C)=O)C(C)(c2ccccc2)S1 (centres undefined)", "yes (1)"],
  ["COc1ccc([C@@]2(O)c3c(ccc4c3OC(C)(CCC=C(C)C)C=C4)NC(=O)[C@@H]2OC)cc1 (some centres undefined)", "no (0)"],
  ["COC(=O)C[C@H]1C(C)(C)[C@H](OC(=O)C(C)C)[C@@]2(O)C(=O)[C@]1(C)C1CC[C@]3(C)C(CC(=O)O[C@H]3c3ccoc3)[C@]13O[C@@H]32 (some centres undefined)", "no (0)"]
]}

Check the results log: what was the call for CN(C)CCn1cc(S(=O)(=O)c2cccc(F)c2)c2cccnc21 ? no (0)

---

# Test system: HeLa
# METHOD: Primary qHTS to identify gynecologic anti-cancer compounds using libraries of approved drugs and bioactive compounds (AID 1345084); note: nearly all actives have a fitted effect of over 55% in size
# CONDITION INFO: Gynecologic cancer cell panel viability, ATPlite luminescence, 48 h; series mostly up to 57.5 µM
Results filed as inconclusive are left out. The source made the active and inactive calls. The call rests on the fitted dose curve; in most records, active means well fitted cell-killing curve with a large enough effect; inconclusive means small, poorly fitted or top-dose-only effect, or effect the other way; inactive means flat fitted curve, though single readings scatter.
Classes to choose from: active, inactive

Example cases with answers are listed next.
{"columns": ["COMPOUND", "CAT"],
 "data": [
  ["Cc1ccc(NC(=O)c2ccc(CN3CC[C@H](N(C)C)C3)c(C(F)(F)F)c2)cc1Nc1nccc(-c2cncnc2)n1", "inactive"],
  ["COc1c/c(=C2\\C=c3ccccc3=N2)[nH]/c1=C\\c1[nH]c(C)cc1C", "active"],
  ["C[C@@H]1C(=O)O[C@H]2[C@@H](O)C34[C@H]5C[C@@H](C(C)(C)C)C36[C@@H](OC(=O)[C@@H]6O)O[C@@]4(C(=O)O5)[C@@]12O (stereo partly drawn)", "inactive"]
]}

Check the results log: what was the call for CC1=C(CCC(C)O[C@@H]2O[C@H](CO)[C@@H](O)[C@H](O)[C@H]2O)C(C)(C)CCC1=O (stereo partly drawn) ? inactive

---

# Test system: Tov-21-G
# METHOD: Primary qHTS to identify gynecologic anti-cancer compounds using libraries of approved drugs and bioactive compounds (AID 1345084); note: nearly all actives have a fitted effect of over 55% in size
# CONDITION INFO: Gynecologic cancer cell panel viability, ATPlite luminescence, 48 h; series mostly up to 57.5 µM
Inconclusive results are not listed. Activity calls are given as the source filed them. Calls follow the shape of the dose curve; as a rule, active = well fitted cell-killing curve with a large enough effect; inconclusive = small, poorly fitted or top-dose-only effect, or effect the other way; inactive = flat fitted curve, though single readings scatter.
Classes to choose from: active, inactive

{"columns": ["COMPOUND", "CAT"],
 "data": [
  ["CC/C=C\\[C@H](O)[C@H](O)C1=C(C)C(=O)[C@]2(O1)C(=O)N[C@@](OC)(C(=O)c1ccccc1)[C@@H]2O", "inactive"]
]}

Check the results log: what was the call for Cc1nc2ccc(Oc3ccc(F)cc3)cc2c(=O)n1C[C@H]1CCCN(C(C)C)C1 ? inactive

Check the results log: what was the call for C=C1CC23CC1CCC2C12OC(=O)C(C)(CCC1O)C2C3C(=O)O (configuration not stated) ? inactive

Check the results log: what was the call for CNC(=S)NS(=O)(=O)c1cc(CCNC(=O)c2cc(Cl)ccc2OC)ccc1OC ? inactive

Check the results log: what was the call for O=C(Nc1ccc(-c2ccncc2)cc1)N[C@H](CO)c1ccccc1 ? inactive

Check the results log: what was the call for C/C=C1\[C@H](O[C@@H]2O[C@H](CO)[C@@H](O)[C@H](O)[C@H]2O)OC=C(C(=O)OC)[C@H]1CC(=O)O ? inactive

Check the results log: what was the call for Nc1ccccc1N ? active

---

# Test system: HeLa
# METHOD: Primary qHTS to identify gynecologic anti-cancer compounds using libraries of approved drugs and bioactive compounds (AID 1345084); note: nearly all actives have a fitted effect of over 55% in size
# CONDITION INFO: Gynecologic cancer cell panel viability, ATPlite luminescence, 48 h; series mostly up to 57.5 µM
Records with an inconclusive call do not appear. The source made the active and inactive calls. Calls come from the whole dose curve; as a rule, active = well fitted cell-killing curve with a large enough effect; inconclusive = small, poorly fitted or top-dose-only effect, or effect the other way; inactive = flat fitted curve, though single readings scatter.
Classes to choose from: active, inactive

{"columns": ["COMPOUND", "CAT"],
 "data": [
  ["CN(C)CC1CCOC1(c1ccccc1)c1ccccc1 (stereo unspecified)", "inactive"],
  ["CC1(C)CC[C@]2(C(=O)O[C@@H]3O[C@H](CO)[C@@H](O)[C@H](O)[C@H]3O)CC[C@]3(C)C(=CCC4[C@@]5(C)C[C@@H](O)[C@H](O)[C@@](C)(CO)C5CC[C@]43C)C2[C@@H]1O (stereo partly specified)", "inactive"]
]}

Check the results log: what was the call for CC1(C)C[C@H](O)C[C@@]2(C)OC(=O)C=C12 ? inactive

Check the results log: what was the call for COC(=O)C1=CO[C@@H](O[C@@H]2O[C@H](CO)[C@@H](O)[C@H](O)[C@H]2O)[C@H]2[C@@H]1C=C[C@@]21C=C([C@H](C)O)C(=O)O1 ? inactive

Check the results log: what was the call for C/C=C1\[C@H](O[C@@H]2O[C@H](CO)[C@@H](O)[C@H](O)[C@H]2O)OC=C2C(=O)OCCc3ccc(O)c(c3)Oc3ccc(cc3)CCOC(=O)C[C@H]21 ? inactive

Check the results log: what was the call for Cc1cc(=O)oc2c(C=O)c(O)ccc12 ? inactive

---

# Tested on: HeLa
# METHOD: Primary qHTS to identify gynecologic anti-cancer compounds using libraries of approved drugs and bioactive compounds (AID 1345084); note: nearly all actives have a fitted effect of over 55% in size; for activity change, negative = cytotoxicity: % is set by controls: 0 for no effect and ±100 for the full control effect
# CONDITION INFO: Gynecologic cancer cell panel viability, ATPlite luminescence, 48 h; series mostly up to 57.5 µM
# Excerpt: National Center for Advancing Translational Sciences [NCATS] Assay Overview: Chemotherapeutic drug responses vary from cancer to cancer and from patient to patient. […] ATPlite is a luminescence based assay reliant on the conversion of a luciferase substrate to light in the presence of ATP. As a cytotoxic compound will suppress growth and decrease the number of cells, the concentration of ATP will decrease, and less light signal will be detected in the well. […]
Inconclusive results are not listed. Active and inactive are the calls of the source. Calls come from the whole dose curve; as a rule, active = well fitted cell-killing curve with a large enough effect; inconclusive = small, poorly fitted or top-dose-only effect, or effect the other way; inactive = flat fitted curve, though single readings scatter.
VALUE KIND: activity change, negative = cytotoxicity

{"columns": ["MOLECULE", "activity change, negative = cytotoxicity"],
 "data": [
  ["C[C@@H]1O[C@@H](O[C@H]2[C@H](OC(=O)[C@]34CCC(C)(C)C[C@H]3C3=CCC5[C@@]6(C)CC[C@H](O[C@@H]7O[C@H](C(=O)O)[C@@H](O)[C@H](O)[C@H]7O[C@@H]7O[C@H](CO)[C@H](O)[C@H](O)[C@H]7O)[C@@](C)(C=O)C6CC[C@@]5(C)[C@]3(C)C[C@H]4O)O[C@H](C)[C@H](O[C@@H]3O[C@H](C)[C@H](O)[C@H](O)[C@H]3O)[C@@H]2O)[C@H](O)[C@H](O)[C@H]1O[C@@H]1OC[C@@H](O)[C@H](O[C@@H]2O[C@H](CO)[C@@H](O)[C@H](O)[C@H]2O)[C@H]1O (some centres not stated)", "3.75% [at 6.55 µM] (inactive)"]
]}

Next item in the queue.
Form entry - test system: HeLa; read-out: activity change, negative = cytotoxicity; molecule: CC(C)=CCC[C@](C)(O[C@@H]1O[C@H](CO[C@@H]2O[C@H](CO)[C@@H](O)[C@H](O)[C@H]2O)[C@@H](O)[C@H](O)[C@H]1O)C1CC[C@]2(C)[C@@H]1[C@H](O)CC1[C@@]3(C)CC[C@H](O[C@@H]4O[C@H](CO)[C@@H](O)[C@H](O)[C@H]4O[C@@H]4O[C@H](CO)[C@@H](O)[C@H](O)[C@H]4O)C(C)(C)[C@@H]3CC[C@]12C (some centres not stated) -0.531% [at 11.6 µM] (inactive)
